# System: Avena sterilis
# assay.name: Herbicidal activity against Avena sterilis accession P04 assessed as weed survival at 16 times field recommended herbicide dose
# Type: functional
# Survival >= 50% gives rule met, anything below gives rule not met

query: Confirm if Survival reported for the compound COC(=O)C(C)Oc1ccc(Oc2ccc(Cl)cc2Cl)cc1 (stereo unspecified) is 50% or above.
result: rule met

query: Confirm if Survival reported for the compound `C#CCOC(=O)[C@@H](C)Oc1ccc(Oc2ncc(Cl)cc2F)cc1` is 50% or above.
result: rule met

query: Confirm if Survival reported for the compound COCc1cnc(C2=NC(C)(C(C)C)C(=O)N2)c(C(=O)O)c1 (stereo unspecified) is 50% or above.
result: rule not met

query: Confirm if Survival reported for the compound `CCOC(=O)[C@@H](C)Oc1ccc(Oc2nc3ccc(Cl)cc3o2)cc1` is 50% or above.
result: rule not met

query: Confirm if Survival reported for the compound CCO/N=C(\CC)C1=C(O)CC(c2c(C)cc(C)cc2C)CC1=O (stereo unspecified) is 50% or above.
result: rule met

query: Confirm if Survival reported for the compound `CCc1cc(C)cc(CC)c1-c1c(OC(=O)C(C)(C)C)n2n(c1=O)CCOCC2` is 50% or above.
result: rule not met

----------
Would you kindly list Survival for each of these molecules?
# System: Avena sterilis
# assay.name: Herbicidal activity against Avena sterilis accession P06S assessed as weed survival at 1 times field recommended herbicide dose
# Format: functional
Give a bare numeral; the unit % is implied.

query: # lookup: Survival of COCc1cnc(C2=NC(C)(C(C)C)C(=O)N2)c(C(=O)O)c1 (stereo unspecified) [IMAZAMOX]
result: 0

query: # lookup: Survival of CCO/N=C(\CC)C1=C(O)CC(c2c(C)cc(C)cc2C)CC1=O (stereo unspecified) [TRALKOXYDIM]
result: 0

query: # lookup: Survival of CCc1cc(C)cc(CC)c1-c1c(OC(=O)C(C)(C)C)n2n(c1=O)CCOCC2 [PINOXADEN]
result: 0

query: # lookup: Survival of COC(=O)C(C)Oc1ccc(Oc2ccc(Cl)cc2Cl)cc1 (stereo unspecified) [DICLOFOP-METHYL]
result: 40

query: # lookup: Survival of CCOC(=O)[C@@H](C)Oc1ccc(Oc2nc3ccc(Cl)cc3o2)cc1 [FENOXAPROP-P-ETHYL]
result: 0

query: # lookup: Survival of C#CCOC(=O)[C@@H](C)Oc1ccc(Oc2ncc(Cl)cc2F)cc1 [CLODINAFOP PROPARGYL]
result: 0

----------
# System: Avena sterilis
# assay.name: Herbicidal activity against Avena sterilis accession P13S assessed as weed survival at 1/32 times field recommended herbicide dose
# Format: functional
test.readout: Survival (%)
Give a bare numeral; the unit % is implied.

query: # lookup: Survival of CCOC(=O)[C@@H](C)Oc1ccc(Oc2nc3ccc(Cl)cc3o2)cc1 [FENOXAPROP-P-ETHYL]
result: 90

query: # lookup: Survival of CCc1cc(C)cc(CC)c1-c1c(OC(=O)C(C)(C)C)n2n(c1=O)CCOCC2 [PINOXADEN]
result: 100

query: # lookup: Survival of COCc1cnc(C2=NC(C)(C(C)C)C(=O)N2)c(C(=O)O)c1 (stereo unspecified) [IMAZAMOX]
result: 100

query: # lookup: Survival of COC(=O)C(C)Oc1ccc(Oc2ccc(Cl)cc2Cl)cc1 (stereo unspecified) [DICLOFOP-METHYL]
result: 100

query: # lookup: Survival of C#CCOC(=O)[C@@H](C)Oc1ccc(Oc2ncc(Cl)cc2F)cc1 [CLODINAFOP PROPARGYL]
result: 80

query: # lookup: Survival of CCO/N=C(\CC)C1=C(O)CC(c2c(C)cc(C)cc2C)CC1=O (stereo unspecified) [TRALKOXYDIM]
result: 93

Reference for the values: ChEMBL document CHEMBL3046559
